The values you see were collected from patent US8987249B2.

Target: recombinant human DPPI (Cathepsin C) (Homo sapiens (Human))
Sequence (P53634 231-394): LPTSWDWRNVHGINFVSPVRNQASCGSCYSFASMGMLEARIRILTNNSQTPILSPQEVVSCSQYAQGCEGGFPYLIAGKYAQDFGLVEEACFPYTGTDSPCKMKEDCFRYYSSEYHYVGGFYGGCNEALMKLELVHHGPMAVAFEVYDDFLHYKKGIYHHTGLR
Sequence (P53634 395-463): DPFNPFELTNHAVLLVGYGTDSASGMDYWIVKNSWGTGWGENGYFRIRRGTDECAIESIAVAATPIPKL
Sequence (P53634 25-134): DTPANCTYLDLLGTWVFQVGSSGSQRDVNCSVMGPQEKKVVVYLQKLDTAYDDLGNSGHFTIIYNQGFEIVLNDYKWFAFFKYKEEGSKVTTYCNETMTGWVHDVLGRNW
Assay: Inhibition of human DPPI (Cathepsin C)
Format: biochemical
Settings: substrate Gly-Arg-AMC
Here the recorded pIC50 is given for each entry.
The read-out pIC50 is expressed as -log10 of concentration in moles per litre.

Worked set:
Q: State its pIC50 on recombinant human DPPI (Cathepsin C) (Homo sapiens (Human)): N#C[C@H](Cc1ccc(-n2cccn2)cc1F)NC(=O)[C@H]1N[C@@H]2CC[C@H]1C2
Ans: 8.11

Q: Give recombinant human DPPI (Cathepsin C) (Homo sapiens (Human)) pIC50 for N#C[C@H](Cc1ccc(N2C3CCC2CN(C2CCOC2)C3)cc1F)NC(=O)[C@H]1N[C@@H]2CC[C@H]1C2 (stereo partly shown)
Ans: 8.15

Q: Form: Entry = Cc1occc1-c1ccc(CC(C#N)NC(=O)[C@H]2N[C@@H]3CC[C@H]2C3)c(F)c1 (stereo partly shown) | System = recombinant human DPPI (Cathepsin C) (Homo sapiens (Human)) | pIC50 = ____
Ans: 7.75

New cases:
Q: Notebook: pull reported pIC50 for recombinant human DPPI (Cathepsin C) (Homo sapiens (Human)), entry N#C[C@H](Cc1ccc(N2CCN3CCOC[C@@H]3C2)cc1F)NC(=O)[C@H]1N[C@@H]2CC[C@H]1C2
Ans: 8.20

###

Molecular target: recombinant human DPPI (Cathepsin C) (Homo sapiens (Human))
Assay: Inhibition of human DPPI (Cathepsin C)
Conditions: substrate Gly-Arg-AMC
experimental.readout: pIC50
# log scale: pIC50 equals minus log10 of the concentration in mol/L

Q: Requested read-out: pIC50. Entry: CN1CCN(c2ccc(C[C@@H](C#N)NC(=O)[C@H]3N[C@@H]4CC[C@H]3C4)c(F)c2)C(=O)C1
Ans: 6.69

Q: Reported pIC50 for CC(C)(C)n1cc(-c2ccc(C[C@@H](C#N)NC(=O)[C@H]3N[C@@H]4CC[C@H]3C4)c(F)c2)cn1 : what is it?
Ans: 8.43

Q: Which pIC50 is listed for N#C[C@H](Cc1ccc(C2=CCN3CCOCC3C2)cc1F)NC(=O)[C@H]1N[C@@H]2CC[C@H]1C2 (stereo partly shown) ?
Ans: 8.48

Q: Field request: pIC50 | item: COc1ccccc1-c1cn(-c2ccc(C[C@@H](C#N)NC(=O)[C@H]3N[C@@H]4CC[C@H]3C4)c(F)c2)nn1
Ans: 7.29

Q: Which pIC50 value belongs to N#Cc1ccc2c(c1)[nH]c(=O)c1cc(CC(C#N)NC(=O)[C@H]3N[C@@H]4CC[C@H]3C4)ccc12 (stereo partly shown) ?
Ans: 8.04

Q: Reported pIC50 for N#C[C@H](Cc1ccc2c(c1F)CCC(N1CCOCC1)C2)NC(=O)[C@H]1N[C@@H]2CC[C@H]1C2 (stereo partly shown) : what is it?
Ans: 7.08

Please turn your attention to the following entry.
Q: Entry CCc1ncc(-c2ccc(C[C@@H](C#N)NC(=O)[C@H]3N[C@@H]4CC[C@H]3C4)c(F)c2)s1 : reported pIC50 = ?
Ans: 8.16

###

Biological target: recombinant human Cathepsin K (Homo sapiens (Human))
Sequence (P43235 115-329): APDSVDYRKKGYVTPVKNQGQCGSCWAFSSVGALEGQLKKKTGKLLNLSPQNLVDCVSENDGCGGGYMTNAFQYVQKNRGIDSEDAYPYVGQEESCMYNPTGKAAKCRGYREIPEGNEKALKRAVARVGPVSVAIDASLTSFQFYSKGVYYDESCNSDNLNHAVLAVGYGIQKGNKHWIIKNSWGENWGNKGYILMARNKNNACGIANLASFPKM
Test: Inhibition of human Cathepsin K
Details: substrate Z-Gly-Pro-Arg-AMC
experimental.readout: pIC50
Lab note — pIC50 values are minus log10 of concentrations in M.

Known pIC50 results, listed for orientation:
Q: I have this compound here, N#C[C@H](Cc1ccc(-c2cnn(CC3CCCCO3)c2)cc1F)NC(=O)[C@H]1N[C@@H]2CC[C@H]1C2 (some centres unmarked) , and I need its recorded pIC50.
Ans: 5.57

Q: # get_value(readout='pIC50', item= N#CC(Cc1ccc(-c2ccc(S(N)(=O)=O)cc2)cc1F)NC(=O)[C@H]1N[C@@H]2CC[C@H]1C2 (some centres unmarked) )
Ans: 5.40

More entries:
Q: Find the recorded pIC50 belonging to Cc1cc(-c2ccc(C[C@@H](C#N)NC(=O)[C@H]3N[C@@H]4CC[C@H]3C4)c(F)c2)n(C)n1 and report it.
Ans: 5.21

Q: Recorded pIC50 of N#C[C@H](Cc1ccc(-c2ccc(C(N)=O)o2)cc1F)NC(=O)[C@H]1N[C@@H]2CC[C@H]1C2 , please.
Ans: 5.20

Q: I am curious: what pIC50 value has been reported for N#Cc1ccc2[nH]c(=O)c3cc(CC(C#N)NC(=O)[C@H]4N[C@@H]5CC[C@H]4C5)ccc3c2c1 (some centres unmarked) ?
Ans: 4.75

Q: Given the compound COc1ccc(-c2cn(-c3ccc(C[C@@H](C#N)NC(=O)[C@H]4N[C@@H]5CC[C@H]4C5)c(F)c3)nn2)cc1OC , what is its reported pIC50?
Ans: 5.28

Q: If you can, please state the reported pIC50 value of CC(=O)N1CCN(C(=O)c2cc(-c3ccc(C[C@@H](C#N)NC(=O)[C@H]4N[C@@H]5CC[C@H]4C5)c(F)c3)cs2)CC1 .
Ans: 5.62

Q: Entry Cc1ncc(-c2ccc(C[C@@H](C#N)NC(=O)[C@H]3N[C@H]4C[C@@H]3[C@@H]3C[C@@H]34)c(F)c2)s1 has what pIC50?
Ans: 5.16

Q: What pIC50 value was documented for this compound, CN1CCCN(c2ccc(C[C@@H](C#N)NC(=O)[C@H]3N[C@@H]4CC[C@H]3C4)c(F)c2)CC1 ?
Ans: 5.35

Q: Recorded pIC50 of CN1C(=O)Cc2ccc(-c3cc(F)c(CC(C#N)NC(=O)[C@H]4N[C@@H]5CC[C@H]4C5)c(F)c3)cc21 (some centres unmarked) , please.
Ans: 4.96

Q: Requested read-out: pIC50. Entry: CN1CC2(C1)CN(c1ccc(C[C@@H](C#N)NC(=O)[C@H]3N[C@@H]4CC[C@H]3C4)c(F)c1)C2
Ans: 5.18

Q: Which pIC50 value is on record for N#CC(Cc1ccc(-c2cnn(C3CCOCC3)c2)cc1F)NC(=O)[C@H]1N[C@@H]2CC[C@H]1C2 (some centres unmarked) ?
Ans: 5.11

Q: Record request: pIC50 value, item N#C[C@H](Cc1ccc(-n2cc(C(F)(F)F)cn2)cc1F)NC(=O)[C@H]1N[C@@H]2CC[C@H]1C2
Ans: 5.06
